Please go through the items and note down their αs1-I CN, 24 hours, 11° C..
# measurementTarget: T1, alpha-s1 casein from Bos taurus
# T1 chain: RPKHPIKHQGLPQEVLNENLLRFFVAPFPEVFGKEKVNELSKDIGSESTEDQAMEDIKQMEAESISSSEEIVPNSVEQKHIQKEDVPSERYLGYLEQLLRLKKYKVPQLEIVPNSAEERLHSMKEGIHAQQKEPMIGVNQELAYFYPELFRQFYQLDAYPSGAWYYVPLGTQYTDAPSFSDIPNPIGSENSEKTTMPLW
Numbers only, in Volume.

>>> measvalue("bovine chymosin B variant #71 (A51V, K221V) (protein) GEVASVPLTNYLDSQYFGKIYLGTPPQEFTVLFDTGSSDFWVPSIYCKSNVCKNHQRFDPRKSSTFQNLGKPLSIHYGTGSMQGILGYDTVTVSNIVDIQQTVGLSTQEPGDVFTYAEFDGILGMAYPSLASEYSIPVFDNMMNRHLVAQDLFSVYMDRNGQESMLTLGAIDPSYYTGSLHWVPVTVQQYWQFTVDSVTISGVVVACEGGCQAILDTGTSVLVGPSSDILNIQQAIGATQNQYGEFDIDCDNLSYMPTVVFEINGKMYPLTPSAYTSQDQGFCTSGFQSENHSQKWILGDVFIREYYSVFDRANNLVGLAKAI")
"2.46e+07"

INPUT: Reported αs1-I CN, 24 hours, 11° C. for camel chymosin variant #139 (F223L) (protein) GKVAREPLTSYLDSQYFGKIYIGTPPQEFTVVFDTGSSDLWVPSIYCKSNVCKNHHRFDPRKSSTFRNLGKPLSIHYGTGSMEGFLGYDTVTVSNIVDPNQTVGLSTEQPGEVFTYSEFDGILGLAYPSLASEYSVPVFDNMMDRHLVARDLFSVYMDRNGQGSMLTLGAIDPSYYTGSLHWVPVTLQQYWQFTVDSVTINGVAVACVGGCQAILDTGTSVLLGPSSDILKIQMAIGATENRYGEFDVNCGNLRSMPTVVFEINGRDYPLSPSAYTSKDQGFCTSGFQGDNNSELWILGDVFIREYYSVFDRANNRVGLAKAI : what is it?
OUTPUT: 1.24e+07
